Molecular target: IP receptor (Homo sapiens, UniProt P43119)
Construct: expressed in transfected cells; host or cells: CHO cells stably expressing the IP receptor (CHO-IP)
Sequence (P43119 whole entry): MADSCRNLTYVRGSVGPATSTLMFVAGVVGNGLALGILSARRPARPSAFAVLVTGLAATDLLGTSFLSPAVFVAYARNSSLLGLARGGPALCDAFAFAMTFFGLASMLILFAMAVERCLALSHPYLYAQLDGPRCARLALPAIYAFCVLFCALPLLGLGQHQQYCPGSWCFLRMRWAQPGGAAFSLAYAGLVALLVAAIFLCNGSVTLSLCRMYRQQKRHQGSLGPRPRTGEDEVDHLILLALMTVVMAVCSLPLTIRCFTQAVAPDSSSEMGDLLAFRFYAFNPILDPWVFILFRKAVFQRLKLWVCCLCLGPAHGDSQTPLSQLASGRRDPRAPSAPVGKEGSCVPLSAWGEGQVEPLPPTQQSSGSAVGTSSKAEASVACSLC
Assay: cAMP accumulation in CHO cells stably expressing the IP receptor (CHO-IP), PerkinElmer AlphaScreen assay
Type: cell-based
Details: 1 hour at room temperature, Table 1, read-out: EC50
Attribute Measured: pEC50
Answer as the number alone; pEC50 is minus log10 of concentration in mol/L.

Identify measured pEC50 corresponding to Cc1ccc(-c2nc3c(nc2-c2ccc(C)cc2)N(CCCCCCC(=O)O)CCC3O)cc1 (single isomer, unassigned) [Example 9.8]
9.53

Identify measured pEC50 corresponding to Cc1ccc(-c2nc3c(nc2-c2ccc(C)cc2)N(CCCC(O)C(O)CC(=O)O)CCC3)cc1 (racemic)
7.24

Identify measured pEC50 corresponding to Cc1ccc(-c2nc3c(nc2-c2ccc(C)cc2)N(CCCCCCC(=O)O)CC(O)C3O)cc1 (single isomer, unassigned) [Example 8.2b]
9.05

Identify measured pEC50 corresponding to O=C(O)CCCCCCN1CC[C@@H](O)c2nc(-c3ccccc3)c(-c3ccccc3)nc21
8.25

Identify measured pEC50 corresponding to CC1CCc2cc(-c3ccccc3)c(-c3ccccc3)nc2N1CCCCCCC(=O)O (single isomer, unassigned) [Example 3.2]
6.61

---

Target: IP receptor (Homo sapiens, UniProt P43119)
Construct: expressed in transfected cells; host or cells: CHO cells stably expressing the IP receptor (CHO-IP)
Test: cAMP accumulation in CHO cells stably expressing the IP receptor (CHO-IP), PerkinElmer AlphaScreen assay
Type: cell-based
Details: 1 hour at room temperature, Table 1, read-out: EC50
Attribute Measured: log10 EC50 (log10 of the value in nM)
Heads up: the numbers are on a log10 scale; they represent EC50 in nM.

Identify measured log10 EC50 corresponding to Cc1ccc(-c2nc3c(nc2-c2ccc(C)cc2)N(CCCCCCC(=O)O)CCC3O)cc1 (single isomer, unassigned) [Example 9.8a]
-0.40

Identify measured log10 EC50 corresponding to O=C(O)CCCCCCN1CCCc2nc(-c3ccccc3)c(-c3ccccc3)nc21
0.08

Identify measured log10 EC50 corresponding to Cc1ccc(-c2nc3c(nc2-c2ccccc2)CCCN3CCCCCCC(=O)O)cc1
-1.10

Identify measured log10 EC50 corresponding to O=C(O)CCCCCCN1CCCc2cc(-c3ccccc3)c(-c3ccccc3)nc21
0.74

Identify measured log10 EC50 corresponding to COC1Cc2nc(-c3ccc(C)cc3)c(-c3ccc(C)cc3)nc2N(CCCCCCC(=O)O)C1 (single isomer, unassigned) [Example 17.1b]
0.68

Identify measured log10 EC50 corresponding to Cc1ccc(-c2nc3c(nc2-c2ccc(C)cc2)N(CCCCCCC(=O)O)CCC3O)cc1 (single isomer, unassigned) [Example 9.8b]
0.26

Identify measured log10 EC50 corresponding to Cc1ccc(-c2nc3c(nc2-c2ccc(C)cc2)N(CCCCCCC(=O)O)C(C)CC3)cc1 (single isomer, unassigned) [Example 4.15]
-0.32

Identify measured log10 EC50 corresponding to Cc1ccc(-c2nc3c(nc2-c2ccc(C)cc2)N(CCCCCCC(=O)O)C(=O)CC3)cc1
-1.12

Identify measured log10 EC50 corresponding to CN1c2nc(-c3ccccc3)c(-c3ccccc3)cc2CCC1CCCCCC(=O)O (single isomer, unassigned) [Example 2.1]
1.48
